Kindly supply the reported HBsAg values for the records listed here.
Test system: HBsAg-Sekretion von Hep G2 (2.2.15)-Zellen
Assay: Inhibition of HBsAg secretion of Hep G2 (2.2.15) cells (solid-phase radioimmunoassay of the medium)
Type: cell-based, HBV
Conditions: nucleoside 0,003 µM; 4 days + 24 h; mean ± SD of five experiments
From the text: Die Testung der antiviralen Wirksamkeit der Nucleoside auf zelluärer Ebene erfolgte an einer menschlichen Hepatoblastom-Zellinie, die mit dem HBV-Genom tranfiziert wurde und sowohl das Oberflächenantigen des Virus (HBsAg) als auch die HBV-DNA permanent produziert und infektiöse Viruspartikel in das Medium abgibt (Hep G2-Zellen, Klon 2.2.15, Sells et al. Proc.Natl.Acad. Sci. 84, 1005 (1987)). […]

Challenge: Name the reported HBsAg value associated with the compound Cc1cn([C@H]2C[C@H](Cl)[C@@H](CO)O2)c(=O)nc1N
Response given: 18,5 ± 2,6 ng/ml

Challenge: State the recorded HBsAg for this entry: CCc1cn([C@H]2C[C@H](F)[C@@H](CO)O2)c(=O)nc1N
Response given: 16,7 ± 2,6 ng/ml

Challenge: Bench note: what HBsAg did Cc1cn([C@@H]2O[C@H](CO)[C@@H](O)[C@@H]2O)c(=O)nc1N show?
Response given: 16,8 ± 1,7 ng/ml
